A collection of compounds and their measured pEC50
TGT: Adenosine receptor A1 (Homo sapiens, UniProt P30542)
TEST: Agonist activity at human adenosine A1 receptor expressed in CHO cells assessed as [35S]GTPgammaS binding by scintillation counting in presence of 10 uM allosteric modulator PD-81723
Type: functional, cell-based
CONDITION: read-out: EC50
The scale used: pEC50 is minus the common logarithm of the concentration in molar units.

Sample answers from the record:
| SMILES NOTATION | TGT | pEC50 |
| --- | --- | --- |
| Nc1sc2c(c1C(=O)c1ccc(Cl)c(Cl)c1)CCN(CCCCCCCCCOc1ccc(Nc3ncnc4c3ncn4[C@@H]3O[C@H](CO)[C@@H](O)[C@H]3O)cc1)C2 | Adenosine receptor A1 (Homo sapiens, UniProt P30542) | 6.74 |
| Nc1sc2c(c1C(=O)c1ccc(Cl)c(Cl)c1)CCN(CCCCCOc1ccc(Nc3ncnc4c3ncn4[C@@H]3O[C@H](CO)[C@@H](O)[C@H]3O)cc1)C2 | Adenosine receptor A1 (Homo sapiens, UniProt P30542) | 7.28 |

Documented pEC50 of COc1ccc(Nc2ncnc3c2ncn3[C@@H]2O[C@H](CO)[C@@H](O)[C@H]2O)cc1 : 7.54

###

TGT: Adenosine receptor A1 (Homo sapiens, UniProt P30542)
TEST: Agonist activity at human adenosine A1 receptor expressed in CHO cells assessed as [35S]GTPgammaS binding by scintillation counting
Format: functional, cell-based
CONDITION: read-out: EC50
A collection of compounds and their measured pEC50
Lab note: report pEC50 as minus log10 of the concentration in molar units, number only.

| SMILES NOTATION | TGT | ASSAY VALUE |
| --- | --- | --- |
| COc1ccc(Nc2ncnc3c2ncn3[C@@H]2O[C@H](CO)[C@@H](O)[C@H]2O)cc1 | Adenosine receptor A1 (Homo sapiens, UniProt P30542) | 6.85 |
| Nc1sc2c(c1C(=O)c1ccc(Cl)c(Cl)c1)CCN(CCCCCOc1ccc(Nc3ncnc4c3ncn4[C@@H]3O[C@H](CO)[C@@H](O)[C@H]3O)cc1)C2 | Adenosine receptor A1 (Homo sapiens, UniProt P30542) | 6.56 |

Consider now this further compound.
The measured pEC50 associated with Nc1sc2c(c1C(=O)c1ccc(Cl)c(Cl)c1)CCN(CCCCCCCCCOc1ccc(Nc3ncnc4c3ncn4[C@@H]3O[C@H](CO)[C@@H](O)[C@H]3O)cc1)C2 reads 6.41

###

TGT: Adenosine receptor A1 (Homo sapiens) (UniProt P30542)
Sequence (whole entry): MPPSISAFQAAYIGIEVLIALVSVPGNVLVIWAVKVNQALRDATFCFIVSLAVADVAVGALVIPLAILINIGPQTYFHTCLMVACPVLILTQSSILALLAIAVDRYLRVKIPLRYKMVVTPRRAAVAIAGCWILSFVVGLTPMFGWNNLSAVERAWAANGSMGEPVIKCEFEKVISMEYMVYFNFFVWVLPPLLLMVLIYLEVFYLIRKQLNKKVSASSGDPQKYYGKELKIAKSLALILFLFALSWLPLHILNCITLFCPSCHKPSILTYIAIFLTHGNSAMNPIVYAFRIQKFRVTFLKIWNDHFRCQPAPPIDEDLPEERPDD
TEST: Displacement of […] from human adenosine A1 receptor expressed in CHO cells by scintillation counting relative to control
Assay type: cell-based
Design: concentration or dose not given beside the values
TEST READOUT: Activity (%)
Output spec: scalar in %, unitless text.

The examples below pair each entry with its known result.
| SMILES NOTATION | TGT | OUTPUT UNIT | Activity |
| --- | --- | --- | --- |
| Nc1sc2c(c1C(=O)c1ccc(Cl)c(Cl)c1)CCN(CCCCCOc1ccc(Nc3ncnc4c3ncn4[C@@H]3O[C@H](CO)[C@@H](O)[C@H]3O)cc1)C2 | Adenosine receptor A1 (Homo sapiens) (UniProt P30542) | % | 100 |
| Nc1sc2c(c1C(=O)c1ccc(Cl)c(Cl)c1)CCN(CCOc1ccc(Nc3ncnc4c3ncn4[C@@H]3O[C@H](CO)[C@@H](O)[C@H]3O)cc1)C2 | Adenosine receptor A1 (Homo sapiens) (UniProt P30542) | % | 100 |
| Nc1sc2c(c1C(=O)c1ccc(Cl)c(Cl)c1)CCN(CCCOc1ccc(Nc3ncnc4c3ncn4[C@@H]3O[C@H](CO)[C@@H](O)[C@H]3O)cc1)C2 | Adenosine receptor A1 (Homo sapiens) (UniProt P30542) | % | 100 |
| Nc1sc2c(c1C(=O)c1ccc(Cl)c(Cl)c1)CCN(CCCCOc1ccc(Nc3ncnc4c3ncn4[C@@H]3O[C@H](CO)[C@@H](O)[C@H]3O)cc1)C2 | Adenosine receptor A1 (Homo sapiens) (UniProt P30542) | % | 100 |

// Activity (Adenosine receptor A1 (Homo sapiens) (UniProt P30542)) for Nc1sc2c(c1C(=O)c1ccc(Cl)c(Cl)c1)CCN(CCCCCCOc1ccc(Nc3ncnc4c3ncn4[C@@H]3O[C@H](CO)[C@@H](O)[C@H]3O)cc1)C2 = 103

Lab note: compound Nc1sc2c(c1C(=O)c1ccc(Cl)c(Cl)c1)CCN(CCCCCCCCOc1ccc(Nc3ncnc4c3ncn4[C@@H]3O[C@H](CO)[C@@H](O)[C@H]3O)cc1)C2 tested on Adenosine receptor A1 (Homo sapiens) (UniProt P30542); recorded Activity was 65

###

TGT: Adenosine receptor A1 (Homo sapiens)
Sequence (P30542 whole entry): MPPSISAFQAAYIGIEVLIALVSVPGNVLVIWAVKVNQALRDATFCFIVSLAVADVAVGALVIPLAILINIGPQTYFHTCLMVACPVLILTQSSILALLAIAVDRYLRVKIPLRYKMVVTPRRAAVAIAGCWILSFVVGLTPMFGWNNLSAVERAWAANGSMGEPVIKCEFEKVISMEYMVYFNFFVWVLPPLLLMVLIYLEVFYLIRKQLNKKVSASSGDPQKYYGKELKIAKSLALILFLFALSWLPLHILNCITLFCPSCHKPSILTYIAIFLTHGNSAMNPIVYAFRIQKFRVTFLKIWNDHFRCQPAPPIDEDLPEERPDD
TEST: Displacement of […] from human adenosine A1 receptor expressed in CHO cells by scintillation counting
Assay type: cell-based
CONDITION: read-out: Ki
TEST READOUT: Ki (nM)
Just the number please, in nM, no unit attached.

Short answer for Nc1sc2c(c1C(=O)c1ccc(Cl)c(Cl)c1)CCN(CCCCOc1ccc(Nc3ncnc4c3ncn4[C@@H]3O[C@H](CO)[C@@H](O)[C@H]3O)cc1)C2 : Ki was 618

compound Nc1sc2c(c1C(=O)c1ccc(Cl)c(Cl)c1)CCN(CCCOc1ccc(Nc3ncnc4c3ncn4[C@@H]3O[C@H](CO)[C@@H](O)[C@H]3O)cc1)C2 , Ki observed: 439

Recorded Ki (compound Nc1sc2c(c1C(=O)c1ccc(Cl)c(Cl)c1)CCN(CCCCCOc1ccc(Nc3ncnc4c3ncn4[C@@H]3O[C@H](CO)[C@@H](O)[C@H]3O)cc1)C2 ): 219

Ki recorded for this compound, Nc1sc2c(c1C(=O)c1ccc(Cl)c(Cl)c1)CCN(CCCCCCOc1ccc(Nc3ncnc4c3ncn4[C@@H]3O[C@H](CO)[C@@H](O)[C@H]3O)cc1)C2 , is 419

Measured Ki, COc1ccc(Nc2ncnc3c2ncn3[C@@H]2O[C@H](CO)[C@@H](O)[C@H]2O)cc1 : 842

Nc1sc2c(c1C(=O)c1ccc(Cl)c(Cl)c1)CCN(CCCCCCCCCCOc1ccc(Nc3ncnc4c3ncn4[C@@H]3O[C@H](CO)[C@@H](O)[C@H]3O)cc1)C2 has a reported Ki of 1470

Entry Nc1sc2c(c1C(=O)c1ccc(Cl)c(Cl)c1)CCN(CCOc1ccc(Nc3ncnc4c3ncn4[C@@H]3O[C@H](CO)[C@@H](O)[C@H]3O)cc1)C2 , Ki reported as 751

Ki recorded for this compound, Nc1sc2c(c1C(=O)c1ccc(Cl)c(Cl)c1)CCN(CCCCCCCCCOc1ccc(Nc3ncnc4c3ncn4[C@@H]3O[C@H](CO)[C@@H](O)[C@H]3O)cc1)C2 , is 679

So for Nc1sc2c(c1C(=O)c1ccc(Cl)c(Cl)c1)CCN(CCCCCCCCOc1ccc(Nc3ncnc4c3ncn4[C@@H]3O[C@H](CO)[C@@H](O)[C@H]3O)cc1)C2 , the logged Ki turned out to be 836

Record Nc1sc2c(c1C(=O)c1ccc(Cl)c(Cl)c1)CCN(CCCCCCCOc1ccc(Nc3ncnc4c3ncn4[C@@H]3O[C@H](CO)[C@@H](O)[C@H]3O)cc1)C2 , field Ki: 450

###

TGT: Adenosine receptor A1 (Homo sapiens)
Sequence (P30542 whole entry): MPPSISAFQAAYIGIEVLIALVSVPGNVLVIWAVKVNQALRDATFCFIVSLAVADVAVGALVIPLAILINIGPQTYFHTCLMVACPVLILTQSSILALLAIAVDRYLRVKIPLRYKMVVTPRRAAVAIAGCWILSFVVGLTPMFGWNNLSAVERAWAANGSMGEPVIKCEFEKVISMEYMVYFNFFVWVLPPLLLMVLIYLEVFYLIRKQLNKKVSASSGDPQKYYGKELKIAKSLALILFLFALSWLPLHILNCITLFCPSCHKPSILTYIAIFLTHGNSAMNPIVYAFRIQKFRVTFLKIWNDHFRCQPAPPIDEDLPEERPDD
TEST: Displacement of […] from human adenosine A1 receptor expressed in CHO cells at low affinity site by scintillation counting
Assay type: cell-based
CONDITION: read-out: Ki
TEST READOUT: pKi
# pKi is unitless: minus log10 of the molar concentration; print number only

// sample COc1ccc(Nc2ncnc3c2ncn3[C@@H]2O[C@H](CO)[C@@H](O)[C@H]2O)cc1 , its pKi was 5.70
